test: Quantitative High-Throughput drug screen in 47 multiple myeloma cell lines against the NCATS MIPE library collection: PE2_PLB cell viability assay (AID 1919869); settings: PE2_PLB myeloma cells viability, ATP luminescence, 48 h; series mostly up to 45.8 µM; further: nearly all actives have a fitted effect of over 35% in size
Results filed as inconclusive are left out. Active and inactive are the calls of the source. The call rests on the fitted dose curve; in most records, active means well fitted cell-killing curve with a large enough effect; inconclusive means small, poorly fitted or top-dose-only effect, or effect the other way; inactive means no such curve, though single readings can be large or run the other way.
Write down one outcome, taken from true = active, false = inactive

Examples with answers:
# smiles_str, class_label
records = [
    ("C=C1C[C@@]2(O)O[C@@]3(C[C@H]2C(C)C)[C@H](C)CC[C@H]13", "false"),
    ("COc1cc(OC)cc(-c2ccc3ncc4ccc(=O)n(-c5ccc(N6CCNCC6)c(C(F)(F)F)c5)c4c3c2)c1", "true"),
    ("COc1cc(OC)c(C=CS(=O)(=O)Cc2ccc(OC)c(NCC(=O)O)c2)c(OC)c1", "true"),
    ("CCC[C@H]1C[C@H](C(=O)N[C@@H]([C@@H]2O[C@@H](SC)[C@@H](O)[C@@H](O)[C@@H]2O)[C@H](C)Cl)N(C)C1", "false"),
]

Qu. Test call, this compound: Cn1cnc(=N)c2[nH]cnc21
Ans. true
